Tested on: MS2 coat protein
Experiment: apparent KD of MS2 coat protein; higher = weaker reporter binding
Conditions: Eterna round: R107; input ligand: theophylline 2 mM
measure: apparent KD of MS2 coat protein (µM)
Give bare numbers, in µM.

>>> quantitativereadout("CGAUAUAAGACGGCCGCCACUAUUAAGUAUCAAAAUAAACAUGAGGAUCACCCAUGUACAUGGGAUAGGACCGGGUCCAAUAACG [A2]")
0.208
>>> quantitativereadout("AAAUAAAUACAUGAGGAUCACCCAUGUGAAGGAGCGGCCGUUAGGCCAGGUAGGUCGCACAUGAAAGGGAAGCGAAAGAAAUAAU [MAT - Exclusion Arginine A - Mod of Eli - D7]")
0.019

Enter reported apparent KD of MS2 coat protein observed with MS2 coat protein for GCCAUCGGCGGAAGCCGAUGGGAUACAGAAGGAGCGUGGAUUAACACAGGUAGGUCGCUGGACAUGAGGAUCACCCAUGUAAUAG [SSAA #8]
0.0324

----------
For each entry below, report its apparent KD of MS2 coat protein value.
Test system: MS2 coat protein
Assay: apparent KD of MS2 coat protein; higher = weaker reporter binding
Settings: Eterna round: R107; input ligand: theophylline 2 mM
One number for each entry, in nM.

Examples with their reported apparent KD of MS2 coat protein follow.
>>> quantitativereadout("CUAUGUAUAUAUGCGAAAGCUACGUGUUGACGAGGACCGGUACGGCCGCCACUCGACAUGAGGAUCACCCAUGUAAUAUAUAUAG [BMP_BFE]")
300
>>> quantitativereadout("UGGAGUAGGACGGCCGCCACUAUACAAUGUGUAUACAUGAGGAUCACCCAUGUAAUCCUCGGAGAUAGGACCGGGUCAAGUUGUG [X-tryptB-ms2@35]")
59.8

Now for another entry.
Enter reported apparent KD of MS2 coat protein observed with MS2 coat protein for AAAACAAUCUGAAGGAGCGUCACAUGAGGAUCACCCAUGUACAUGAGGAUCACCCAUGUGUGACAGGUAGGUCGCAGAAAAUACC [Exclusion Arginine B GF 3]
219

----------
System: MS2 coat protein
Test: apparent KD of MS2 coat protein; designed switch direction (-1 OFF switch, 1 ON switch): -1; higher = weaker reporter binding
Conditions: input ligand: none
For each entry below, report its apparent KD of MS2 coat protein value.
Numbers only, in µM.

>>> quantitativereadout("GUCGUGCGGCUUUGCUGUGCGAGUACAUGAGGAUCACCCAUGUAGGAUAUGGUACGCUUUGCGUGCCAGAAGGGCGUGCGUUGG [salish99_ExNG3_r04_007] (Eterna round: R96, puzzle: Exclusion NG 3)")
0.0354

Each of the following entries comes with a recorded value; kindly state apparent KD of MS2 coat protein for each.
1. GUGUACAGAGGAUAUAUAUGGGCAUGGAAACAUGCAACUUCACAUGAGGAUCACCCAUGUAGAAGGCUGUACAC [Ex2: 712] (Eterna round: R96, puzzle: Exclusion 2)
2. CGCACCACAUGAGGAUCAAACAUGAGGAUCACCCAUGUAUAACAAGCUUUUUGCUCGUCUUAUAAAUAUGUGGUGCG [Electric Eye 3 - Jieux - Sensor, turn-off variant 1] (Eterna round: R97, puzzle: Sensor, turn-off variant 1)
3. GGAGAGGUAGGAUAUGGACCUUAGAACAUGAGGAUCACCCAUGUAGGACCACAUGAUUUGCGAGAAGGACCAGUCC [AK-MS2ROC-r4-exclusion5-7] (Eterna round: R97, puzzle: Exclusion 5)
4. CCACUGUCAGGAUAUCGUGCAUAAGCGUUUACACUUAUGUGCGAGAAGGGACAUGAGGAUCACCCAUGUAAACG [Omei Ex4 A28PK7] (Eterna round: R97, puzzle: Exclusion 4)
5. CCUACUCCCGUUAGGAUAUGUGGAGGCGUACCUCCGUAGAAGGAACAUGAGGAUCACCCAUGUCGCUGUCAUGC [Eternabot (L2) Solution 90] (Eterna round: R97, puzzle: Brourd's mod of Exclusion 4)

[0.0289, 0.0142, 0.655, 0.391, 0.0199]

Each of the following entries comes with a recorded value; kindly state apparent KD of MS2 coat protein for each.
1. AUAUAGAUAGUCAGGAUAUUCUAGUGAUAACAGUAGGAGAAGGGACAUGAGGAUCACCCAUGUAGAUAGUGCAC [Brourd's EX4 #15] (Eterna round: R97, puzzle: Brourd's mod of Exclusion 4)
2. ACAGCUAUAGGAUAUACAGCGAGGAAACUUAGUGGGAUCGGACAUGAGGAUCACCCAUGUAGAAGGAUAGACGG [Eternabot (L2) Solution 85] (Eterna round: R97, puzzle: Exclusion 2)
3. CAUGUUGACAGAGGAUAUGCAAUGUGAUUUAGGGUAGAAGGCUGAGACAUGAGGAUCACCCAUGUGGGUGCGUUCUAGCGACAA [Atmala] (Eterna round: R96, puzzle: Exclusion NG 1)

1. 0.027
2. 0.0976
3. 0.034

Each of the following entries comes with a recorded value; kindly state apparent KD of MS2 coat protein for each.
1. AAUACGUGAGGAUAUAGAUGAAGGAACUUGAGGAUCACCCAAGUGGCGUCUAGUUCCUGGCUAGAAGGCACAAAUA [Biedbe] (Eterna round: R97, puzzle: Exclusion 5)
2. AAACCCGCGCGAGGAUAUCACAUGAGGAUCACCCAUGUGGCACUCCGUCACCGGGCAGUCCCGAGUGAGAAGGUGCAGGCGGAA [Entereis] (Eterna round: R96, puzzle: Exclusion NG 2)
3. GGGCAGGGAGGAUAUGUAUCGCACUACAUGAGGAUCACCCAUGUGCCUUUUGUGACGUGGACAGAAGGUCCUGCCG [Eternabot (L1) Solution 17] (Eterna round: R97, puzzle: Exclusion 5)
4. AAUAACAAGCCGAUCCUUCACAUGAGGAUCACCCAUGUGCUCGUCUUGUAAAGUACUAUCACGAAAGUGAUAGUACA (Eterna round: R97, puzzle: Sensor, turn-off variant 1)
5. AAGAAAAGGAGAGGAUAUGCGAAAGGAAGUGUAGCAGAAGGCUUCGGGUAAGUCCACAUGAGGAUCACCCAUGUUAAUAAAAGA [PowerStrip EXNG 1.19] (Eterna round: R96, puzzle: Exclusion NG 1)
6. CUAAAUCAUGUAGGAUAUGCAUAGCGAAGCUAUGCAGAAGGACAUGAGGAUCACCCAUGUUCUUCCGUCUGAGAACAGACGGAA [Mat - Exclusion NG 1 - Mod of JL - D32] (Eterna round: R96, puzzle: Exclusion NG 1)
7. UCUCGCGGGCAAGGAUAUCCUACGUUGUUCUGGCCCGUGUAUGUUACAUGAGGAUCACCCAUGUGGGAGAAGGUGCACCAGGGC [Design 39] (Eterna round: R96, puzzle: Exclusion NG 2)

[0.326, 0.0234, 0.193, 0.0199, 0.436, 0.0325, 0.0774]

Each of the following entries comes with a recorded value; kindly state apparent KD of MS2 coat protein for each.
1. AAGUCGACGGUGAGGAUAUAGGUCGAACGACCGAUCUAGAAGGCACAUGAGGAUCACCCAUGUGGGUAACGUCG [Brourd's EX4 #33] (Eterna round: R97, puzzle: Brourd's mod of Exclusion 4)
2. CUGGACCCGGUAGGAUAUAUUGUGGGCGGGCGUGGAACGACAUGAGGAUCACCCAUGUGAUUGAGGUAGAAGGGCCGAGAGGUC [Excl-NG2-LRO19] (Eterna round: R96, puzzle: Exclusion NG 2)

1. 0.0223
2. 0.0429

----------
Test system: K4 kissing-loop RNA reporter;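 further: bound reporter read as fluorescence of individual clusters on recovered sequencing chips by microscopy, with normalized cluster intensities fitted with a binding model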
Assay: apparent KD of K4 kissing-loop reporter; higher = weaker reporter binding
Conditions: Eterna round: R107; input ligand: FMN 200 uM
For each entry below, report its apparent KD of K4 kissing-loop reporter value.
Give bare numbers, in nM.

>>> quantitativereadout("UGAUAGGACAGAAGGAGCGGUAGUGAUGUUACCAAAAGGGUAAGGUGUCAAAAGACACCCUACCAGGUAGGUCGCUGUCCUAUCU")
110
>>> quantitativereadout("ACAUUAGGCACGGCCGCCACUGGAUUAAGAUCUUAAGUAUUAAUUAACAUGAGUGAUGUUCAUGCCAGGACCGGGUGACUACCAU [KL-SSTryp-B11]")
275
>>> quantitativereadout("AAACAACUUGACGAUACCAGCUUACUCGGCAAGCCAGUGAUGUUGGUGAAAAGGAGUCAAAGCCCUUGGCAGCGUCGAAGGUCUG [Raatarerin]")
271
>>> quantitativereadout("UAACUUGCAGUGAUGUUGCAAGAACUGGAUACCAGCAUGGAAACAUGCCCUUGGCAGCCAGAAGGUAUCCUCUUGCAUAGAUACU [Design3]")
216
>>> quantitativereadout("GCCGCAAGGAUAGCAGCAAUAGGCGCUCGCUAGGAUAUCUGGAAACAGAGAAGGAGCUGGAGUGAUGUUUUACCUCCUAAAAUUA")
517

Can you share its apparent KD of K4 kissing-loop reporter? I mean this sequence: AAACUUGCAGUGAUGUUGCAAGUAGGUGAUACCAGCAUCGAAAGAUGCCCUUGGCAGCACCAUCACUGUAAGUAGGUGCUGUCAA [(H1)-(H2)-(T1)-(T2)-(H)'-(T)'_Design5]
99.3
